Where these numbers come from: ChEMBL document CHEMBL6114997

System: MCF7
Assay: Antiproliferative activity against human MCF7 cells assessed as inhibition of cell growth by MTT assay
Assay type: functional, cell-based
Measured IC50 values are reported for all entries that follow.

>>> observed_result("COc1cc(/C=C/c2cc(/C=C/c3ccc(OCCCO[N+](=O)[O-])c(OC)c3)n(-c3ccc(C(F)(F)F)cc3)n2)ccc1OCCCO[N+](=O)[O-]")
"> 50 µM"

Data request: Fill in: IC50 of COc1cc(/C=C/c2cc(/C=C/c3ccc(OCCCCO[N+](=O)[O-])c(OC)c3)n(-c3ccc(F)cc3)n2)ccc1OCCCCO[N+](=O)[O-] is ___
Data returned: > 50 µM

Data request: Fill in: IC50 of COc1cc(/C=C/c2cc(/C=C/c3ccc(OCC4CC4)c(OC)c3)n(-c3ccc(C(=O)OCCCO[N+](=O)[O-])cc3)n2)ccc1OCC1CC1 is ___
Data returned: > 50 µM

Data request: Fill in: IC50 of COc1cc(/C=C/c2cc(/C=C/c3ccc(OCC4CC4)c(OC)c3)n(-c3ccc(C(=O)OCCCCO[N+](=O)[O-])cc3)n2)ccc1OCC1CC1 is ___
Data returned: > 50 µM

Data request: Fill in: IC50 of COc1cc(/C=C/c2cc(/C=C/c3ccc(OCCCO[N+](=O)[O-])c(OC)c3)n(-c3ccccn3)n2)ccc1OCCCO[N+](=O)[O-] is ___
Data returned: > 50 µM

Data request: Fill in: IC50 of COc1cc(/C=C/C(=O)C(=Cc2ccco2)C(=O)/C=C/c2ccc(OCCO[N+](=O)[O-])c(OC)c2)ccc1OCCO[N+](=O)[O-] is ___
Data returned: 2.32 µM

Data request: Fill in: IC50 of COc1cc(/C=C/C(=O)CC(=O)/C=C/c2ccc(O)c(OC)c2)ccc1O [CURCUMIN] is ___
Data returned: 19.9 µM
